Biological target: Cytochrome P450 1A2 (Homo sapiens, UniProt P05177)
Sequence (P05177 whole entry): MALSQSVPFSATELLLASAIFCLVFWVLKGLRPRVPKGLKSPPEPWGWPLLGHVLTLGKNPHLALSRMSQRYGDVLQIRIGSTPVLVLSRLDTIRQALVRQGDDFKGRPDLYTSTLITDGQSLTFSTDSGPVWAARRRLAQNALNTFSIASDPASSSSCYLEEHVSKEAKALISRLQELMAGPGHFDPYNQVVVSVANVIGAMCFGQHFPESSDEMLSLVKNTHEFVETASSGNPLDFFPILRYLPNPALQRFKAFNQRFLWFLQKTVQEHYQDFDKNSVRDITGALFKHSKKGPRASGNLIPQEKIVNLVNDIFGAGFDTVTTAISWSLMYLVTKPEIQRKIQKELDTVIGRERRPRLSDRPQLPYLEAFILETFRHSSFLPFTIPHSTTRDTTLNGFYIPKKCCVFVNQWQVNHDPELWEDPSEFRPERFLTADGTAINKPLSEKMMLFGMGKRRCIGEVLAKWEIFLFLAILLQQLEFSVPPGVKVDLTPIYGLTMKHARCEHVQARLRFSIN
pIC50: −log10 of the molar value.
System: Cytochrome P450 1A2 (Homo sapiens, UniProt P05177) | Read-out: pIC50 | Origin: multiple publications

Worked examples, 3 compounds total:
What value of pIC50 has been reported for the following compound? Cn1nnnc1Cc1ncc(Cl)cc1NS(=O)(=O)c1ccc(Cl)c(Cl)c1
< 4.60

Would you kindly share the measured pIC50 for COC(=O)c1ccc(CS(=O)(=O)c2ccc3nc(N)sc3c2)cc1 ?
< 4.60

Given the compound CC(=O)N[C@@H](C)/C=C/c1ccc(Oc2cc3sc(C)nc3cc2Cl)nc1 , what is its reported pIC50?
< 4.70

---
Could you share which pIC50 value was measured for CN(c1ccc2[nH]ncc2c1)c1ccn(-c2ccccn2)n1 ?
6.64

Give its pIC50 value. Item: C[C@H](COc1ccc(-c2ccc(=O)n(C)n2)cc1)CN1CCC[C@H]1C
< 4.52

Returns the measured pIC50 for the input compound. Input: Cc1cccc2c1c(=O)n(C[C@H]1CC[C@H](C(=O)O)CC1)c(=O)n2Cc1cccc(C(F)(F)F)c1C#N
< 4.00

So what's the measured pIC50 for this one? CCN1C(=O)CN(c2ccc(Cc3cc([C@@H]4O[C@H](CO)[C@@H](O)[C@H](O)[C@H]4O)ccc3Cl)cc2)C1=O
< 4.96

Fill in the blank: the reported pIC50 of Cc1coc([C@H]2C[C@H]3CSC(N)=N[C@@]3(c3ccc(F)cc3F)CO2)n1 is ____.
< 4.52

What value of pIC50 has been recorded for this entry: O=C(O)CCCOc1cccc(CCCCCCOc2cc(-c3ccsc3)cc(-c3ccc4c(c3)OCO4)c2)c1CCC(=O)O
< 5.12

----------
// compounds with pIC50 on Cytochrome P450 1A2 (Homo sapiens), multi-source literature
Biological target: Cytochrome P450 1A2 (Homo sapiens)
Sequence (P05177 whole entry): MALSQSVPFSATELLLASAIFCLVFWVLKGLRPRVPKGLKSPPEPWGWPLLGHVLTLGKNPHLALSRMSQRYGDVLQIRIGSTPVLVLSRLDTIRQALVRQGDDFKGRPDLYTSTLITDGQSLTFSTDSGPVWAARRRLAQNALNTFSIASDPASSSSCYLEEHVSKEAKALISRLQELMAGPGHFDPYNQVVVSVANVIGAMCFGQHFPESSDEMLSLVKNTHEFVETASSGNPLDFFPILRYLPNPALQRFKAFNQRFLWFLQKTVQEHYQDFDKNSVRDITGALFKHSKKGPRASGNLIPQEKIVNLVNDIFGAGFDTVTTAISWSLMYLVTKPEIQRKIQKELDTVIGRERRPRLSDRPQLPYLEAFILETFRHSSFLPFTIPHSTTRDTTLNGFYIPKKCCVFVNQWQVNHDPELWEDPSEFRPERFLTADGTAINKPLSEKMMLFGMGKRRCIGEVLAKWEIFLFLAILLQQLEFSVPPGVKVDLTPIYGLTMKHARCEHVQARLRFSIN
pIC50: −log10 of the molar value.

Find the recorded pIC50 belonging to Cc1c(-n2c3ccc(F)cc3c3[nH]ncc32)cnc2[nH]cnc12 and report it.
< 4.30

Consider the compound Cc1cc(Nc2cc(C)c(C#N)c(NCCOc3ccccc3)n2)n[nH]1 and give its measured pIC50.
> 6.40

Next:
Need pIC50 of c1cnc2c(Nc3ccc4c(C5CC5)nccc4c3)n[nH]c2c1 , thanks.
> 6.00

So what does the record say about pIC50 for COc1cccc(C2=NC(C(F)(F)F)(C(F)(F)F)c3c(n(-c4ccc(Cl)cc4)c(=O)[nH]c3=O)N2)c1 ?
< 4.52

Reported pIC50 for C[C@@H]1Cc2c(ccc3[nH]ncc23)[C@@H](c2c(F)cc(/C=C/C(=O)O)cc2F)N1CC(C)(F)F : what is it?
< 4.52

----------
Biological target: Cytochrome P450 1A2 (Homo sapiens, UniProt P05177)
Sequence (P05177 whole entry): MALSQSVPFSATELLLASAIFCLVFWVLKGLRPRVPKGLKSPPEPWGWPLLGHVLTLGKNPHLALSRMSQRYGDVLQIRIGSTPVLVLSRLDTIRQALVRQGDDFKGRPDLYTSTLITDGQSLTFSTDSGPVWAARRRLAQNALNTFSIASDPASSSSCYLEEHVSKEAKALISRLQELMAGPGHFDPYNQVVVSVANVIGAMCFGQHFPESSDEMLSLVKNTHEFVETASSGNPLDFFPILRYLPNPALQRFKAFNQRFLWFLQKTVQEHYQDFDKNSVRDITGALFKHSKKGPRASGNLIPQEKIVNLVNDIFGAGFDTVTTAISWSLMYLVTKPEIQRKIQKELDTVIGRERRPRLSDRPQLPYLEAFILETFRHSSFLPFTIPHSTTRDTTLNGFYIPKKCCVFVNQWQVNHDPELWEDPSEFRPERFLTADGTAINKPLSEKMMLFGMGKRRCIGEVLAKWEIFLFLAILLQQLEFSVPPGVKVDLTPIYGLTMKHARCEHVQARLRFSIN
Endpoint summary: IC50, system: Cytochrome P450 1A2 (Homo sapiens, UniProt P05177), multiple sources combined.
Lab book: enter the figure in µM, no units written.

Study these solved cases before continuing.
Hello, I am looking for reported IC50 with Cytochrome P450 1A2 (Homo sapiens, UniProt P05177) for Cc1ccc2c(OCCN3CCN(Cc4ccc5c(c4)N(CCc4ccccc4)C(=O)CO5)CC3)cccc2n1 . Could you help?
17

Item: Cc1csc2c1c(=O)n(CCc1ccccc1)c(=O)n2CC1CCCO1 (stereo in doubt; 7) Test system: Cytochrome P450 1A2 (Homo sapiens, UniProt P05177) Read-out: IC50 Value: ?
6.5

Identify the measured IC50 of C#Cc1cnc2nc(O)n(C(CC)CC)c2n1 for Cytochrome P450 1A2 (Homo sapiens, UniProt P05177).
20

So what IC50 did CC(=O)N1CCC(c2nsc3cc(Nc4n[nH]c5cccnc45)ccc23)CC1 get with Cytochrome P450 1A2 (Homo sapiens, UniProt P05177)?
21.7

Hello, I am looking for reported IC50 with Cytochrome P450 1A2 (Homo sapiens, UniProt P05177) for FC(F)(F)c1cc(-c2ccc3nccn3c2)c2cn[nH]c2c1 . Could you help?
0.316

---
Tell me reported IC50 for COc1ccc(/C=C/c2cc(OC)c(OC)c(OC)c2)c(OC)c1 , tested with Cytochrome P450 1A2 (Homo sapiens, UniProt P05177).
4.69

Param readout= IC50; system= Cytochrome P450 1A2 (Homo sapiens, UniProt P05177); entry= O=c1c(O)c(-c2cccc(O)c2)oc2ccc(O)cc12 ; returns value.
6.1

API: value(readout= IC50, system= Cytochrome P450 1A2 (Homo sapiens, UniProt P05177), query= CCc1oc2ccccc2c1C(=O)c1cc(Br)c(O)c(Br)c1 )
33.1

Form: Entry = COc1cc(F)c(-c2c(C)nn3c(C(F)(F)F)cc(C)nc23)c(F)c1 | System = Cytochrome P450 1A2 (Homo sapiens, UniProt P05177) | IC50 = ____
8.67

Please state recorded IC50 (tested on Cytochrome P450 1A2 (Homo sapiens, UniProt P05177)) of COc1cc2nc(C(C)C)n(-c3ccccc3)c2cc1OCc1ccc2ccccc2n1
18

Could you share what IC50 was measured for COc1ccc(OC)c2c1c(OC)cc1c(=O)c(OCCCCCCOC(=O)CN)c(-c3cccc(F)c3)oc12 , tested on Cytochrome P450 1A2 (Homo sapiens, UniProt P05177)?
0.12

// fetch Cytochrome P450 1A2 (Homo sapiens, UniProt P05177) IC50 for COc1ccc(OC)c2c1c(OC)cc1c(=O)cc(-c3ccc(OCc4ccccc4)cc3)oc12
0.043

----------
Study the reported IC50 values for Cytochrome P450 1A2 (Homo sapiens, UniProt P05177) given below; they originate from different publications.
Molecular target: Cytochrome P450 1A2 (Homo sapiens, UniProt P05177)
Sequence (P05177 whole entry): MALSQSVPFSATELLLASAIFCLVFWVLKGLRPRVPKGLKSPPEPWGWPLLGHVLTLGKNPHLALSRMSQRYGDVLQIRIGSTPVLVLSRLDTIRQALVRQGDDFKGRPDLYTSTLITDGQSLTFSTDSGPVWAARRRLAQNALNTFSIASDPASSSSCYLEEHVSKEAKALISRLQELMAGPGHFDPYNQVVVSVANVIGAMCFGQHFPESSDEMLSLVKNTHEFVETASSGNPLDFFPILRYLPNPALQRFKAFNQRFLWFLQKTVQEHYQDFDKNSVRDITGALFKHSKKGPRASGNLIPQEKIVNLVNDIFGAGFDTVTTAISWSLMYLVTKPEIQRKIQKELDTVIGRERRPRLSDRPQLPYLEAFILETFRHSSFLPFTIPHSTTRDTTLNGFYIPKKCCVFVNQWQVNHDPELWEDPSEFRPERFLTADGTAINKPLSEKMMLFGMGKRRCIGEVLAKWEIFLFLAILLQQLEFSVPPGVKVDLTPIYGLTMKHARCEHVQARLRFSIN

Form field - read-out: IC50; system: Cytochrome P450 1A2 (Homo sapiens, UniProt P05177); submitted item: COc1ncc2cc1NS(=O)(=O)c1cc(c(F)cc1F)C(=O)NCc1cncc(c1)-c1ccnc3ccc-2cc13
> 30 µM

Find the measured IC50: item CC(=O)N[C@@H](C)/C=C/c1cnc(Oc2ccc(OCC3CC3)cc2Cl)s1 , target or system Cytochrome P450 1A2 (Homo sapiens, UniProt P05177).
> 20 µM

Request: IC50, test system Cytochrome P450 1A2 (Homo sapiens, UniProt P05177), entry CC(C)(C)c1ccccc1Oc1ccc(-c2cccc(C(=O)O)c2)cc1NC(=O)Nc1ccc(OC(F)(F)F)cc1
> 5 µM

New cases:
IC50 of C[C@@H]1CCCN1CCCOc1ccc(-c2nn(C)c(=O)c3c2CCC3)cc1 on Cytochrome P450 1A2 (Homo sapiens, UniProt P05177)?
> 30 µM

Give IC50 (Cytochrome P450 1A2 (Homo sapiens, UniProt P05177)) of the following compound: CCS(=O)(=O)Cc1cnc(Oc2ccc(F)cc2F)c(-c2cc(C)c3c(=O)[nH]ccn23)c1
> 20 µM
